This section presents compounds with their documented IC50 values.
biological target: EGFR exon 20 SVD Ins D770_N771 (Ba/F3 cells) (Homo sapiens, UniProt P00533, INS770SVD); construct: expressed in transfected cells; host or cells: Ba/F3 (murine pro-B cells), retroviral transduction, puromycin selection, IL3-independent pool; assay: Inhibitor activity on EGFR-dependent cell growth (CellTiter-Glo, 72 h), Ba/F3 EGFR exon 20 SVD Ins; format: cell-based; conditions: read-out: BaF3 SVD IC50
Sequence (P00533 with tags, fused parts or gaps INS770SVD): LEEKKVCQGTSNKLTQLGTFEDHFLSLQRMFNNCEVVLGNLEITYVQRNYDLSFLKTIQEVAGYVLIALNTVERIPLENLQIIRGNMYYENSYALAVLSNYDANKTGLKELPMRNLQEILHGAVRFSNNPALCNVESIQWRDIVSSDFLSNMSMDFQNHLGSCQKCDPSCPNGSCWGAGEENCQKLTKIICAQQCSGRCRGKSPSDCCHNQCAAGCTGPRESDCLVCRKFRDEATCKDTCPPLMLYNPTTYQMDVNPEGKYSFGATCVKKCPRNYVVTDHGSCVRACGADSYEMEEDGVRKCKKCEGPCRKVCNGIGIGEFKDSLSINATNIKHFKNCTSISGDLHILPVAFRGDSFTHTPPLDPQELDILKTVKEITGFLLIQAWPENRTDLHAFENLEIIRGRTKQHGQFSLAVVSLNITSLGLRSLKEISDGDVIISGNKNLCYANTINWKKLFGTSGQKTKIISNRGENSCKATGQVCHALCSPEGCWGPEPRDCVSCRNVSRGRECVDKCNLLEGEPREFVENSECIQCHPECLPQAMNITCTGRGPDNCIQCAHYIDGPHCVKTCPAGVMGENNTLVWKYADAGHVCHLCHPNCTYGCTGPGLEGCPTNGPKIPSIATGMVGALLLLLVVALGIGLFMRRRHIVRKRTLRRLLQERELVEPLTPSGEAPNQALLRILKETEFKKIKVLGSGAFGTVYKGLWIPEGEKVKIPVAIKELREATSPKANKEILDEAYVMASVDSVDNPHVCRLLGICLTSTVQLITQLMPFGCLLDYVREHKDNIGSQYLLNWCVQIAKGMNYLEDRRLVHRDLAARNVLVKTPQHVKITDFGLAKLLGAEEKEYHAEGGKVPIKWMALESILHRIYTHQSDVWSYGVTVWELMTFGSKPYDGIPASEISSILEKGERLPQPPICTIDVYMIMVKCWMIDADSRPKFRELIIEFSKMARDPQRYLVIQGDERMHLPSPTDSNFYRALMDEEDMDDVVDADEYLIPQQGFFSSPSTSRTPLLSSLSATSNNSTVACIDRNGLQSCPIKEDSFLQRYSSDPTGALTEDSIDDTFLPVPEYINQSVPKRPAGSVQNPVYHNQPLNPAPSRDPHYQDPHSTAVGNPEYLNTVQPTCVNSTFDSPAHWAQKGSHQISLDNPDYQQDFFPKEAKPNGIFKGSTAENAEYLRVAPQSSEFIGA

# compound, IC50
data = [
    ("COCC[C@@H]1CNC(=O)c2c(Nc3cccc(Cl)c3OC)c(-c3ccncn3)n(C)c21 (single isomer, unassigned)", "> 1000 nM"),
    ("COc1c(Cl)cccc1Nc1c(-c2ccnc3ccc(OC4CC4)nc23)[nH]c2c1C(=O)NCC21CC1", "< 100 nM"),
    ("COc1ncc2nccc(-c3[nH]c4c(c3Nc3cccc(C)c3F)C(=O)NCC4)c2n1", "< 100 nM"),
    ("COc1ncc2nccc(-c3[nH]c4c(c3Nc3cccc(F)c3CC(F)F)C(=O)NCC4)c2n1", "100 to 1000 nM"),
    ("COc1ccc2nccc(-c3[nH]c4c(c3Nc3cccc(Cl)c3OC)C(=O)NCC43CCC3)c2n1", "< 100 nM"),
    ("CC#CC(=O)N1CCC2(CC1)CNC(=O)c1c2[nH]c(-c2ccncc2F)c1Nc1cccc(Cl)c1OC", "> 1000 nM"),
    ("COc1c(F)cccc1Nc1c2c(n(C)c1-c1ccncc1F)CCNC2=O", "> 1000 nM"),
    ("COc1ncc2nccc(-c3[nH]c4c(c3Nc3cccc(Cl)c3F)C(=O)NCC4)c2n1", "< 100 nM"),
    ("COc1c(F)cccc1Nc1c(-c2ccncn2)[nH]c2c1C(=O)NCC2C[C@H]1COCCO1 (single isomer, unassigned) [Compound 530]", "< 100 nM"),
    ("Nc1nccc(-c2[nH]c3c(c2Nc2cccc(F)c2OC(F)F)C(=O)NCC3)n1", "100 to 1000 nM"),
    ("CC#Cc1cccc(Nc2c(-c3ccnc(N)n3)[nH]c3c2C(=O)NCC3)c1OC", "> 1000 nM"),
    ("Cc1c(F)cccc1Nc1c(-c2nc(N)ncc2F)[nH]c2c1C(=O)NCC2", "> 1000 nM"),
    ("COc1c(F)cccc1Nc1c(-c2ccncc2F)[nH]c2c1C(=O)NC[C@H]2CC1COCCO1 (stereo in doubt)", "< 100 nM"),
    ("COc1c(Cl)cccc1Nc1c(-c2ccnc3c(N)noc23)[nH]c2c1C(=O)NCC2", "< 100 nM"),
    ("CCO[C@@H](C)c1ccc2nccc(-c3[nH]c4c(c3Nc3cccc(Cl)c3OC)C(=O)NCC4)c2n1", "< 100 nM"),
    ("COc1c(Cl)cccc1Nc1c(-c2ccnc3ccc(OC4(C)COC4)nc23)[nH]c2c1C(=O)NCC2", "< 100 nM"),
    ("COc1ncc2nccc(-c3[nH]c4c(c3Nc3cccc(Cl)c3OC(F)(F)F)C(=O)NCC4)c2n1", "> 1000 nM"),
    ("COc1c(Cl)cccc1Nc1c(-c2ccnc3cc(F)cnc23)[nH]c2c1C(=O)NCC2", "< 100 nM"),
    ("COc1c(F)cccc1Nc1c(-c2ccncc2F)[nH]c2c1C(=O)NC[C@@H]2CC1COC1 [469b]", "> 1000 nM"),
    ("COc1ccc2nccc(-c3[nH]c4c(c3Nc3cccc(Cl)c3OC)C(=O)NC[C@H]4CCF)c2n1", "< 100 nM"),
    ("COc1c(Cl)cccc1Nc1c(-c2ccnc3ccc(C4CC4)nc23)[nH]c2c1C(=O)NCC2", "< 100 nM"),
    ("C=CC(=O)N1CCC2(CC1)CNC(=O)c1c2[nH]c(-c2ccnc(C)n2)c1Nc1cccc(Cl)c1OC", "< 100 nM"),
    ("COc1c(Cl)cccc1Nc1c(-c2ccnc3ccc(O[C@H]4CCOC4)nc23)[nH]c2c1C(=O)NCC2", "< 100 nM"),
    ("COc1c(Cl)cccc1Nc1c(-c2ccnc3ccc(OCCN(C)C)nc23)[nH]c2c1C(=O)NCC2", "< 100 nM"),
    ("COc1c(Cl)cccc1Nc1c(-c2ccncc2F)[nH]c2c1C(=O)NCC2CCF (stereo not drawn)", "100 to 1000 nM"),
    ("C=CC(=O)N1CCC(Oc2nc3c(-c4[nH]c5c(c4Nc4cccc(Cl)c4OC)C(=O)NCC5)ccnc3cc2OC)CC1", "< 100 nM"),
    ("COc1c(Cl)cccc1Nc1c(-c2ccncc2F)[nH]c2c1C(=O)NC[C@H]2CC(F)F", "100 to 1000 nM"),
]
